Just for reference, paper PMC6348446 is where these values come from.

test: CHI LogD determination (reverse-phase HPLC); type: physicochemical; conditions: reversed-phase HPLC (ACE Excel 3 SuperC18 column), pH 7.4; read-out: CHI LogD (pH7.4)
Observation Type: chromatographic logD

Compound | chromatographic logD
COc1cc(-c2cn(C)c(=O)c3cnccc23)cc(OC)c1CN1CCN(CCOCCOc2cc(-c3scnc3C)ccc2CNC(=O)[C@@H]2C[C@@H](O)CN2C(=O)[C@@H](NC(=O)C2(F)CC2)C(C)(C)C)CC1 | 2
COc1cc(-c2cn(C)c(=O)c3cnccc23)cc(OC)c1CN1CCN(CCOCCOCCOc2cc(-c3scnc3C)ccc2CNC(=O)[C@@H]2C[C@@H](O)CN2C(=O)[C@@H](NC(=O)C2(F)CC2)C(C)(C)C)CC1 | 2
COc1cc(-c2cn(C)c(=O)c3cnccc23)cc(OC)c1CN1CCN(CCCCCOc2cc(-c3scnc3C)ccc2CNC(=O)[C@@H]2C[C@@H](O)CN2C(=O)[C@@H](NC(=O)C2(F)CC2)C(C)(C)C)CC1 | 2.3
COc1cc(-c2cn(C)c(=O)c3cnccc23)cc(OC)c1CN1CCN(CCCCCOc2cc(-c3scnc3C)ccc2CNC(=O)[C@@H]2C[C@H](O)CN2C(=O)[C@@H](NC(=O)C2(F)CC2)C(C)(C)C)CC1 [cisVZ185] | 2.4

###

half-life at 10 µM for assorted compounds
experiment: Plasma stability, mouse; format: in vitro ADME; conditions: mouse, plasma, pH 7.4; 10 µM compound, 37 °C; read-out: Plasma stability T 1/2, Mouse

Compound | Observation Type | Reported Measurement
COc1cc(-c2cn(C)c(=O)c3cnccc23)cc(OC)c1CN1CCN(CCCCCOc2cc(-c3scnc3C)ccc2CNC(=O)[C@@H]2C[C@H](O)CN2C(=O)[C@@H](NC(=O)C2(F)CC2)C(C)(C)C)CC1 [cisVZ185] | half-life at 10 µM | > 3 h

// half-life at 10 µM value for `COc1cc(-c2cn(C)c(=O)c3cnccc23)cc(OC)c1CN1CCN(CCCCCOc2cc(-c3scnc3C)ccc2CNC(=O)[C@@H]2C[C@@H](O)CN2C(=O)[C@@H](NC(=O)C2(F)CC2)C(C)(C)C)CC1` : > 3 h

###

Entries annotated with measured pEC50
system: EOL-1 and A-204 cells; test: Cell viability/proliferation, ranges stated over EOL-1 and A-204; format: cell-based; settings: Homo sapiens; EOL-1 and A-204, text; read-out: EC50 (cell viability), range
pEC50: −log10 of the molar value.

Chemical String | Observation Type | Reported Measurement
COc1cc(-c2cn(C)c(=O)c3cnccc23)c(OC)cc1CN(C)C | pEC50 | 5.45 to 6.43

Next:
// returns pEC50 for `COc1cc(-c2cn(C)c(=O)c3cnccc23)cc(OC)c1CN(C)C` with EOL-1 and A-204 cells; value = 6.47 to 7.05

###

assay: Aqueous kinetic solubility by laser nephelometry; format: physicochemical; conditions: MilliQ water with 2.5% DMSO
Observation Type: solubility kinetic (µM)

Molecule | solubility kinetic (µM)
COc1cc(-c2cn(C)c(=O)c3cnccc23)cc(OC)c1CN1CCN(CCCCCOc2cc(-c3scnc3C)ccc2CNC(=O)[C@@H]2C[C@H](O)CN2C(=O)[C@@H](NC(=O)C2(F)CC2)C(C)(C)C)CC1 [cisVZ185] | 79
COc1cc(-c2cn(C)c(=O)c3cnccc23)cc(OC)c1CN1CCN(CCCCCOc2cc(-c3scnc3C)ccc2CNC(=O)[C@@H]2C[C@@H](O)CN2C(=O)[C@@H](NC(=O)C2(F)CC2)C(C)(C)C)CC1 [Compound 51] | 85

###

Biological target: BRD7 (Homo sapiens)
Construct: Western blot analysis of BRD9 and BRD7 levels after treatment of HeLa cells; endogenous in cells; host or cells: HeLa
Sequence (Q9NPI1 1-651): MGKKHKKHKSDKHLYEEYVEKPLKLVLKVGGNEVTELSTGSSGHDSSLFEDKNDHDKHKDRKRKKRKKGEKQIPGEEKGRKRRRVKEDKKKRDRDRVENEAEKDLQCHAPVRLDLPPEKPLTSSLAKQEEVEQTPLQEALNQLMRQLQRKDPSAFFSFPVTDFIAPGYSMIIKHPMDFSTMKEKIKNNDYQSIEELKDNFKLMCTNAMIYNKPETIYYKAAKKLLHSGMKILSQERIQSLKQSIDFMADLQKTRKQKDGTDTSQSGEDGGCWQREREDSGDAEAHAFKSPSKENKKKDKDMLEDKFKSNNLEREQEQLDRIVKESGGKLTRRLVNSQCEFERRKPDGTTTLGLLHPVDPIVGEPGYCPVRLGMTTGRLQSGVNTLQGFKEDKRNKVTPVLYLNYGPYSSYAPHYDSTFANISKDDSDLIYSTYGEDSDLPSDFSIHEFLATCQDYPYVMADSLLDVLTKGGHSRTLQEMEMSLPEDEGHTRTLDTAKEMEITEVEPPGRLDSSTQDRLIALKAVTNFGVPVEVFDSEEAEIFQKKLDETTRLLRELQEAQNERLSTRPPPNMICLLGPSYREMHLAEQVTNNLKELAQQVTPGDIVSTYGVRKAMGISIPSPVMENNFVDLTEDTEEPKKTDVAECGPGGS
Experiment: Western blot of BRD7 levels in HeLa cells after compound treatment
Format: cell-based
Settings: HeLa cells, 1 μM compound, 4 h
Observation Type: BRD7 degradation

Molecule | Reported Measurement
COc1cc(-c2cn(C)c(=O)c3cnccc23)cc(OC)c1CN1CCN(CCOCCOCC(=O)N[C@H](C(=O)N2C[C@H](O)C[C@H]2C(=O)NCc2ccc(-c3scnc3C)cc2)C(C)(C)C)CC1 | at most 20%
COc1cc(-c2cn(C)c(=O)c3cnccc23)cc(OC)c1CN1CCN(CCOCCOCC(=O)NCCNc2cccc3c2C(=O)N(C2CCC(=O)NC2=O)C3=O)CC1 (stereo not shown) | no BRD7 degradation
COc1cc(-c2cn(C)c(=O)c3cnccc23)cc(OC)c1CN1CCN(CCOCCOCCOCCOCC(=O)NCCNc2cccc3c2C(=O)N(C2CCC(=O)NC2=O)C3=O)CC1 (stereo not shown) | no BRD7 degradation
COc1cc(-c2cn(C)c(=O)c3cnccc23)cc(OC)c1CN1CCN(CCOCCOCCOCCOCC(=O)N[C@H](C(=O)N2C[C@H](O)C[C@H]2C(=O)NCc2ccc(-c3scnc3C)cc2)C(C)(C)C)CC1 | at most 20%

###

molecular target: BRD9 (Homo sapiens, UniProt Q9H8M2); construct: Western blot analysis of BRD9 and BRD7 levels after treatment of HeLa cells; endogenous in cells; host or cells: HeLa; assay: Western blot of BRD9 levels in HeLa cells after compound treatment; assay type: cell-based; settings: HeLa cells, 1 μM compound, 4 h
Sequence (Q9H8M2 whole entry): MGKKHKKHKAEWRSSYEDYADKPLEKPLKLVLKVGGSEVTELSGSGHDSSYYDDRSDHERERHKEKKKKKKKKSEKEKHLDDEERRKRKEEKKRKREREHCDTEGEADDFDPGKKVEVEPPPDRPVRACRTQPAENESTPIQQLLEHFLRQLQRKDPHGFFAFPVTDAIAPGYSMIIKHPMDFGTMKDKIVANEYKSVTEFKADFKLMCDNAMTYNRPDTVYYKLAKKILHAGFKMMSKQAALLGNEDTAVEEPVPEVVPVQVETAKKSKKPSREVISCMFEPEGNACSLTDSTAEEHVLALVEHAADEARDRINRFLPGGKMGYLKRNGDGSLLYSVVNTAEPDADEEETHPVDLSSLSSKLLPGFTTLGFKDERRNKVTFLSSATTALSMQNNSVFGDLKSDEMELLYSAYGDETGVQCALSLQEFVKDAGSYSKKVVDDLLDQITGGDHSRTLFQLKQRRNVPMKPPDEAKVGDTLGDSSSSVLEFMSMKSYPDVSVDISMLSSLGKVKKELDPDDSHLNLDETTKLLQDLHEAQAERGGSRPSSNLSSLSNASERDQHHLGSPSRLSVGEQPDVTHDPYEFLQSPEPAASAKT

Compound | BRD9 degradation
COc1cc(-c2cn(C)c(=O)c3cnccc23)cc(OC)c1CN1CCN(CCOCCOCCOCCOCC(=O)N[C@H](C(=O)N2C[C@H](O)C[C@H]2C(=O)NCc2ccc(-c3scnc3C)cc2)C(C)(C)C)CC1 [Compound 6] | at most 20%
COc1cc(-c2cn(C)c(=O)c3cnccc23)cc(OC)c1CN1CCN(CCOCCOCCOCCOCC(=O)NCCNc2cccc3c2C(=O)N(C2CCC(=O)NC2=O)C3=O)CC1 (stereo not shown) [Compound 8] | strong degradation
COc1cc(-c2cn(C)c(=O)c3cnccc23)cc(OC)c1CN1CCN(CCOCCOCC(=O)N[C@H](C(=O)N2C[C@H](O)C[C@H]2C(=O)NCc2ccc(-c3scnc3C)cc2)C(C)(C)C)CC1 [Compound 5] | at most 20%
COc1cc(-c2cn(C)c(=O)c3cnccc23)cc(OC)c1CN1CCN(CCOCCOCC(=O)NCCNc2cccc3c2C(=O)N(C2CCC(=O)NC2=O)C3=O)CC1 (stereo not shown) [Compound 7] | strong degradation

###

experiment: Parallel Artificial Membrane Permeability Assay (PAMPA); type: in vitro ADME; conditions: PAMPA, pH 7.4
Observation Type: recovery at 5 h, 10 µM (%)

Compound | Readout Units | recovery at 5 h, 10 µM
COc1cc(-c2cn(C)c(=O)c3cnccc23)cc(OC)c1CN1CCN(CCOCCOCCOc2cc(-c3scnc3C)ccc2CNC(=O)[C@@H]2C[C@@H](O)CN2C(=O)[C@@H](NC(=O)C2(F)CC2)C(C)(C)C)CC1 | % | 94
COc1cc(-c2cn(C)c(=O)c3cnccc23)cc(OC)c1CN1CCN(CCOCCOc2cc(-c3scnc3C)ccc2CNC(=O)[C@@H]2C[C@@H](O)CN2C(=O)[C@@H](NC(=O)C2(F)CC2)C(C)(C)C)CC1 | % | 88
COc1cc(-c2cn(C)c(=O)c3cnccc23)cc(OC)c1CN1CCN(CCCCCOc2cc(-c3scnc3C)ccc2CNC(=O)[C@@H]2C[C@H](O)CN2C(=O)[C@@H](NC(=O)C2(F)CC2)C(C)(C)C)CC1 [cisVZ185] | % | 87
